pIC50: −log10 of the molar value.
Observed pIC50, system UniProt:Q9UDY8.
Sequence (Q9UDY8 whole entry): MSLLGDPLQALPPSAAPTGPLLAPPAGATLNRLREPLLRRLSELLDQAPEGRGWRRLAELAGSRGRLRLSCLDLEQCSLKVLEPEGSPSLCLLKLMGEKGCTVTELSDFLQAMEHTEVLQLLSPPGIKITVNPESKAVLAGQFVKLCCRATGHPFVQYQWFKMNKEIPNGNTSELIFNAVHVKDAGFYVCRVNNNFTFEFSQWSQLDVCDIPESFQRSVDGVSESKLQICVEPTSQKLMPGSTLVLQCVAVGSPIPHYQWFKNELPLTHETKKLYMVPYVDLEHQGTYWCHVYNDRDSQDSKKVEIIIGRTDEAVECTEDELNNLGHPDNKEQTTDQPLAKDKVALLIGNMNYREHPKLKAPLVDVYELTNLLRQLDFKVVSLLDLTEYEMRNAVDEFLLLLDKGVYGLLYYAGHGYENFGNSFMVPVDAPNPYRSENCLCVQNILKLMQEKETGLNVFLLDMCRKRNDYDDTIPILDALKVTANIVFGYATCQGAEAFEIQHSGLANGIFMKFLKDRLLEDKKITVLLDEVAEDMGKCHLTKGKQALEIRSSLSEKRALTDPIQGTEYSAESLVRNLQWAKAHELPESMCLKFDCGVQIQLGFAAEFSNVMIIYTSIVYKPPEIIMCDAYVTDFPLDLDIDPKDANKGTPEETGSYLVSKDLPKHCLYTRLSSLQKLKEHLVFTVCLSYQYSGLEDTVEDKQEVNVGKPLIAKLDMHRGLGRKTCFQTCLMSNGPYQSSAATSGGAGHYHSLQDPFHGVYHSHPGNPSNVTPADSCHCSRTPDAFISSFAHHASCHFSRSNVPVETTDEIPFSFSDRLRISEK

Please review the entries below; each comes with its answer.
# Compound, Recorded Measurement
rows = [
    ("COc1ccc2[nH]nc(C)c2c1N(C)S(=O)(=O)c1cnn(-c2ccnc(C(F)(F)F)c2)c1", "≥ 6.40"),
    ("CCC(O)c1ccnc(-n2cc(S(=O)(=O)Nc3c(OC)ccc4cnn(C)c34)cn2)c1 (single isomer, unassigned) [Compound I-281]", "6.00 to 6.40"),
    ("COc1ccc2cnn(C)c2c1NS(=O)(=O)c1cnn(-c2cc(C(C)(C)O)ccn2)c1", "6.00 to 6.40"),
]

Case COc1ccc2cnn(C)c2c1NS(=O)(=O)c1cnn(-c2cc(C3(F)CCC3)ccn2)c1 , UniProt:Q9UDY8, pIC50 recorded as ≥ 6.40

###

Reported values of pIC50 for individual entries
# Test system: NF-kB reporter in Jurkat cells
# Assay Summary: NF-kB reporter assay in Jurkat cells stimulated with aCD3/aCD28/PMA
# Format: cell-based
# Test Settings: Homo sapiens; Jurkat cells, 1 hr compound pre-incubation, aCD3/aCD28/PMA stimulation 4 hr, One-Glo readout; read-out: NF-kB Reporter Assay IC50
pIC50: −log10 of the molar value.

Observe how each entry below is paired with its result.
# Compound, pIC50
records = [
    ("CN1CC(O)(c2ccnc(-n3cc(S(=O)(=O)Nc4cccc5cnn(C)c45)cn3)c2)C1", "< 5.60"),
    ("CCC(O)(CC)c1ccnc(-n2cc(S(=O)(=O)Nc3c(OC)ccc4cnn(C)c34)cn2)c1", "6.00 to 6.40"),
    ("C[C@@H]1CN(c2ccnc(-n3cc(S(=O)(=O)Nc4cccc5cnn(C)c45)cn3)c2)C(=O)N1C", "> 6.40"),
    ("CCc1ccc2cnn(C)c2c1NS(=O)(=O)c1cnn(-c2ccnc(C(F)(F)F)c2)n1", "6.00 to 6.40"),
    ("CCC(OC)c1ccnc(-n2cc(S(=O)(=O)Nc3cccc4cnn(C)c34)cn2)c1 (stereo not drawn)", "> 6.40"),
    ("COC1(c2ccnc(-n3cc(S(=O)(=O)Nc4cccc5cnn(C)c45)cn3)c2)CCC1", "> 6.40"),
]

The compound CCc1ccc2cnn(C)c2c1NS(=O)(=O)c1cnn(-c2cc(C)ccn2)c1 showed pIC50 equal to > 6.40

According to the records, this compound Cc1n[nH]c2cccc(N(C)S(=O)(=O)c3cnn(-c4cc(C(F)(F)F)ccn4)c3)c12 displays pIC50 of 6.00 to 6.40

###

# System: NF-kB reporter in Jurkat cells
# Assay Summary: NF-kB reporter assay in Jurkat cells stimulated with aCD3/aCD28/PMA
# Assay type: cell-based
# Test Settings: Homo sapiens; Jurkat cells, 1 hr compound pre-incubation, aCD3/aCD28/PMA stimulation 4 hr, One-Glo readout; read-out: NF-kB Reporter Assay IC50
Value Type: IC50

Study these solved cases before continuing.
# Structure String, IC50
data = [
    ("COc1ncc2cnn(C)c2c1NS(=O)(=O)c1cnn(-c2cc(C(F)F)ccn2)c1", "< 400 nM"),
    ("COc1ccc2cnn(C)c2c1NS(=O)(=O)c1cnn(-c2cc(N3CC4CC(C4)C3)ccn2)c1", "< 400 nM"),
]

From here, focus on the item given below.
The recorded IC50 for COc1ncc2cnn(C)c2c1NS(=O)(=O)c1cnn(-c2cc(C(C)(C)O)ccn2)c1 is 400 to 1000 nM
